assay_name: recombinant UMI read abundance after kanamycin selection (control-corrected) (log10(CPM+1)); higher = more efficient recombination; extreme values may be limits of the assay; sequences stand for … in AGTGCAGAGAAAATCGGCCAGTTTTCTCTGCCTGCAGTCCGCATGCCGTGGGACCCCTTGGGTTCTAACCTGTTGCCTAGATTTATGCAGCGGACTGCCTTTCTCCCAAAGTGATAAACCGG…AGGTTGGTTTCACT; site = the 11-nt donor;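 further: IS621 bridge recombinase in Escherichia coli cells against a fixed T5 target plasmid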
For each of the sequences below, state its recombinant UMI read abundance (log10).

For CTAGGTGCATGGACCGGTTTTCCCGGTAATCCGTATTTGAT (site CTAGGTGCTAT) the sequence record lists recombinant UMI read abundance (log10) as 2.14

Lookup result for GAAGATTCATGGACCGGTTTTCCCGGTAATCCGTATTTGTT (site GAAGGTTCTAA) ; measured recombinant UMI read abundance (log10): 0.0539

Consider CTGGAACCATGGACCGGTTTTCCCGGTAATCCGTATTTGAT (site CTGGAACCTAT) . Its measured recombinant UMI read abundance (log10) is 0

Given item AGCTTGCCATGGACCGGTTTTCCCGGTAATCCGTATTTGGC (site AGCTTGCCTGC) , the value recorded as its recombinant UMI read abundance (log10) is 0

Lab note: measured recombinant UMI read abundance (log10) of CCCTAGACATGGACCGGTTTTCCCGGTAATCCGTATTTGGG (site CCCTAGACTCC) was 0.546

Form field recombinant UMI read abundance (log10), entry TCATAGACATGGACCGGTTTTCCCGGTAATCCGTATTTGCG (site TCATAGACTCG) : 1.87

Documented recombinant UMI read abundance (log10) of CTGGTAACATGGACCGGTTTTCCCGGTAATCCGTATTTGCA (site CTGGTAACTTG) : 2.06

Short answer for TAAAGCCCATGGACCGGTTTTCCCGGTAATCCGTATTTGTA (site TAAAGACCTTA) : recombinant UMI read abundance (log10) was 0.00168

Consider AATTGTGCATGGACCGGTTTTCCCGGTAATCCGTATTTGCC (site AATTGTGCTGG) . Its measured recombinant UMI read abundance (log10) is 0.735

# sequence ACCTCTACATGGACCGGTTTTCCCGGTAATCCGTATTTGTG (site ACGTCTACTCA) ; its recombinant UMI read abundance (log10) = 0.0131

GET /value?item= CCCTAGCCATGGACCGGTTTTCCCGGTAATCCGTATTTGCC (site CCCTCGCCTGG) &field=recombinant UMI read abundance (log10) returns 0

# sequence CGATCATCATGGACCGGTTTTCCCGGTAATCCGTATTTGAT (site CGATCATCTAA) ; its recombinant UMI read abundance (log10) = 0

response.value for GCACTTGCATGGACCGGTTTTCCCGGTAATCCGTATTTGGC (site GCACTTGCTGC) (field: recombinant UMI read abundance (log10)) = 2.1

recombinant UMI read abundance (log10) reported for this sequence CGGAATCCATGGACCGGTTTTCCCGGTAATCCGTATTTGTC (site CGGAATCCTGA) : 2.06

Please fill in: recombinant UMI read abundance (log10) reported for GATTGGACATGGACCGGTTTTCCCGGTAATCCGTATTTGAA (site GATTGGACTTT) = 0.419

response.value for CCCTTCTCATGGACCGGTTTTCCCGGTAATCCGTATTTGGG (site CCCTTCTCTCT) (field: recombinant UMI read abundance (log10)) = 0.0297
